Recorded values, source the RNAGym collection of RNA variant scans (doi:10.1073/pnas.2313332121).

Attribute: polymerase ribozyme fitness (log ratio)
B1: TPR 5TU (parent)
chain: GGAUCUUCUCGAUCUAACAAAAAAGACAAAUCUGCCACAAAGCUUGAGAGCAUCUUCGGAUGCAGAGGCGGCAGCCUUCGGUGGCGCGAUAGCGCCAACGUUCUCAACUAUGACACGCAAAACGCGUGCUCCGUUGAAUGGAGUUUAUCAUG

# Variants of: B1
# Method description: polymerase ribozyme fitness, log enrichment relative to wild type (log ratio); higher = more active; in vitro selection for triplet polymerase activity
Variants at the floor of the assay were thinned out.

Answered examples (8):
| Variant descriptor | Metric name | Test result |
| --- | --- | --- |
| C8U A22U C27U G70A C85A A89U G92U | polymerase ribozyme fitness (log ratio) | ≤ -4.2 |
| A26U A49C U111G | polymerase ribozyme fitness (log ratio) | ≤ -4.2 |
| U4G G84A C87U A106C G141A U144G | polymerase ribozyme fitness (log ratio) | ≤ -4.2 |
| C10A C85U G133C U134A U146G | polymerase ribozyme fitness (log ratio) | ≤ -4.2 |
| G59C G86C G143U | polymerase ribozyme fitness (log ratio) | ≤ -4.2 |
| G84U C103U A137C | polymerase ribozyme fitness (log ratio) | ≤ -4.2 |
| A17G A21U C51U U53A C79U G94A A115G | polymerase ribozyme fitness (log ratio) | ≤ -4.2 |
| A22U A39U A40C A66C C105U | polymerase ribozyme fitness (log ratio) | ≤ -4.2 |

Exam item: Give the measured polymerase ribozyme fitness (log ratio) for A17G A21C U44A A91C C108U
Marked response: ≤ -4.2
